Data credit: PubChem BioAssay (NCI)

Quick reference for log10(TGI) among some molecules
tested on: LOX IMVI melanoma; experiment: NCI tumour cell line growth inhibition, 48 h
test-readout: log10(TGI) (log10 of the value in µM)

>  <molecule>
C=C1C(=O)O[C@H]2[C@H]1CC/C(COC(=O)NCc1ccc(Cn3c(=O)sn(CCCC)c3=O)cc1)=C\CC[C@@]1(C)O[C@@H]21

>  <value-observed>
0.49

$$$$
>  <molecule>
O=C1CC(Cl)c2c1csc2Br (stereo unspecified)

>  <value-observed>
1.48

$$$$
>  <molecule>
c1ccc(-c2ccc(-c3ccc(C4=NCCN4)cc3)o2)cc1

>  <value-observed>
0.60

$$$$
>  <molecule>
COc1ccc(-c2cc(-c3ccccc3)nc(N)c2-c2ccc3ccccc3c2)cc1

>  <value-observed>
0.49

$$$$
>  <molecule>
COc1ccc(SS(=O)(=O)c2ccc(OC)cc2)cc1

>  <value-observed>
1.50

$$$$
>  <molecule>
Cc1ccc(C2CC(c3cccc(Nc4ccncc4)c3)=NN2c2cc(Cl)cc(Cl)c2)cc1 (stereo unspecified)

>  <value-observed>
0.46

$$$$
>  <molecule>
C=C1CC[C@@H]2C(C)(C)[C@H](O)CC[C@@]2(C)[C@@H]1COc1ccc2ccc(=O)oc2c1

>  <value-observed>
1.75

$$$$
>  <molecule>
c1ccc(CNc2ccc3[nH]c4cnccc4c3c2)cc1

>  <value-observed>
1.53

$$$$
>  <molecule>
Cc1ccc(SC2=C(N(C)C)C(=O)c3ccccc3C2=O)cc1

>  <value-observed>
1.39

$$$$

* * *

test system: NCI/ADR-RES ovarian; assay: NCI tumour cell line growth inhibition, 48 h; in the data active = GI50 below about 0.43 µM; inactive = the rest
Classes used: active, inactive

>  <compound>
Fc1cc(-c2csc3n[nH]c(=S)n23)c(Cl)cc1Cl

>  <class-assignment>
inactive

$$$$
>  <compound>
C[C@H](Nc1ccc2c(c1)OCCn1cc(N3C(=O)OC[C@H]3C(F)F)nc1-2)C(N)=O

>  <class-assignment>
inactive

$$$$
>  <compound>
N#C/C(=C\c1ccc2c(c1)OCO2)n1nnc2ccccc21

>  <class-assignment>
active

$$$$
>  <compound>
Cc1ccc2c(c1)C(=O)C(c1c(-c3[nH]c(=O)c4ccc(C)cc4c3O)c(O)c3ccccc3c1O)=NC2=O

>  <class-assignment>
inactive

$$$$
>  <compound>
O=C(O)c1ccc2nc(-c3ccc(OCCCCCOc4ccc(-c5nc6ccc(C(=O)O)cc6[nH]5)cc4)cc3)[nH]c2c1

>  <class-assignment>
inactive

$$$$
>  <compound>
CCn1cc(C2NC(=O)c3ccccc3N2)c2cccc(C)c21 (stereo unspecified)

>  <class-assignment>
active

$$$$

* * *

system: NCI/ADR-RES ovarian; experiment: NCI tumour cell line growth inhibition, 48 h
Where a SMILES comes first, the peptide text is derived from it. Bridges are numbered along the chain shown (N, C = ends). [ ]: non-standard residue; d: D form. The star is where a group is joined. ξ: configuration not given here. PhAc = O=C(Cc1ccccc1)*; ξP = O=C(O)C1CCCN1
Listed here are compounds together with their documented TGI.

>  <compound>
CCOC(=O)/C=C(\C)Sc1cc(O)c2ccccc2c1O

>  <assayed-system>
NCI/ADR-RES ovarian

>  <TGI>
86.7 µM

$$$$
>  <compound>
O=C(Cc1ccccc1)N[C@@H]1COC(=O)C2CCCN2C(=O)[C@@H]2CCCN2C1=O (stereo partly drawn) (PhAc-[dS]-Pro-[ξP]; ester 1-C)

>  <assayed-system>
NCI/ADR-RES ovarian

>  <TGI>
> 100 µM

$$$$
>  <compound>
COc1ccc(N2C(=O)C3c4[nH]c5cccc(Cl)c5c4C4CCC(C(C)(C)C)CC4C3C2=O)cc1 (stereo not drawn)

>  <assayed-system>
NCI/ADR-RES ovarian

>  <TGI>
> 100 µM

$$$$
>  <compound>
Cc1ccc(/C(O)=C/c2nc3ccccc3[nH]c2=O)cc1

>  <assayed-system>
NCI/ADR-RES ovarian

>  <TGI>
23 µM

$$$$
>  <compound>
COCC1OC(OC2OCC3OC4(OCC(O)(C(C)OC)C5OCOC54)OC3C2OC)C(OC)C(O)C1OC1OC(C)C(OC)C(OC2OC(C)C3OC4(CC(O)C(OC5CC(OC6CC(C)([N+](=O)[O-])C(OC)C(C)O6)C(OC(=O)c6c(C)c(Cl)c(O)c(Cl)c6OC)C(C)O5)C(C)O4)OC3(C)C2O)C1O (stereo not drawn)

>  <assayed-system>
NCI/ADR-RES ovarian

>  <TGI>
> 100 µM

$$$$
>  <compound>
CC(=O)Oc1ccc2c3c1[C@H]1O[C@H]1c1cccc(c1-3)[C@@H]1O[C@H]21

>  <assayed-system>
NCI/ADR-RES ovarian

>  <TGI>
43.5 µM

$$$$
>  <compound>
CN1CCCN(C)CCCN(C)CCCN(C)CCC1

>  <assayed-system>
NCI/ADR-RES ovarian

>  <TGI>
> 100 µM

$$$$
>  <compound>
O=C(C(Cl)Cl)N(O)c1ccccc1OCc1ccccc1

>  <assayed-system>
NCI/ADR-RES ovarian

>  <TGI>
> 100 µM

$$$$
>  <compound>
COc1ccc(NC(=O)CSc2nnc(-c3ccc(N=Cc4ccc(Cl)cc4)cc3)o2)cc1

>  <assayed-system>
NCI/ADR-RES ovarian

>  <TGI>
> 100 µM

$$$$
>  <compound>
COc1cc(/C=C\c2cc(/C=C\c3ccc(O)c(OC)c3)n(C(=O)COc3ccc(Cl)cc3Cl)n2)ccc1O

>  <assayed-system>
NCI/ADR-RES ovarian

>  <TGI>
21.1 µM

$$$$
>  <compound>
CC(=O)/C(N=Nc1ccc(-n2c(C)nc3ccccc3c2=O)cc1)=C(/C)O

>  <assayed-system>
NCI/ADR-RES ovarian

>  <TGI>
> 100 µM

$$$$
>  <compound>
O=C(NCCCCN(CCCNC(=O)C(F)(F)F)Cc1ccccc1)C(F)(F)F

>  <assayed-system>
NCI/ADR-RES ovarian

>  <TGI>
> 100 µM

$$$$
>  <compound>
Cc1cccc(-n2c(C)nc3ccc(NC(=S)Nc4ccccc4)cc3c2=O)c1

>  <assayed-system>
NCI/ADR-RES ovarian

>  <TGI>
> 100 µM

$$$$
>  <compound>
C=C1CC[C@@H]2C(C)(C)[C@H](O)CC[C@@]2(C)[C@@H]1COc1ccc2ccc(=O)oc2c1

>  <assayed-system>
NCI/ADR-RES ovarian

>  <TGI>
62.7 µM

$$$$
>  <compound>
COc1cc(O)c2c3c(ccnc13)-c1ccccc1N2

>  <assayed-system>
NCI/ADR-RES ovarian

>  <TGI>
92.7 µM

$$$$
>  <compound>
CCOC(=O)Oc1ccc(C(CNC(C)C)OC(=O)OCC)cc1OC(=O)OCC (stereo not drawn)

>  <assayed-system>
NCI/ADR-RES ovarian

>  <TGI>
> 100 µM

$$$$
>  <compound>
NC(N)=NCCCC(NC(=O)OCCCCCn1ccc(N)nc1=O)C(=O)O (stereo not drawn)

>  <assayed-system>
NCI/ADR-RES ovarian

>  <TGI>
> 100 µM

$$$$
>  <compound>
CN1CCN(CCOc2ccc(-c3cnc4c(-c5cccc(F)c5F)cnn4c3)cc2)CC1

>  <assayed-system>
NCI/ADR-RES ovarian

>  <TGI>
5.49 µM

$$$$

* * *

tested on: SR leukemia; assay: NCI tumour cell line growth inhibition, 48 h; in the data active = GI50 below about 0.43 µM; inactive = the rest
Labels: TRUE (active), FALSE (inactive)

>  <compound>
CC(C)c1ccc(COCc2cc(CN3CCCC3)c(O)c3ncccc23)cc1

>  <class-assignment>
TRUE

$$$$
>  <compound>
COc1cccc(CNCCN2C(=O)c3ccc4c5c(ccc(c35)C2=O)C(=O)N(CCNCc2cccc(OC)c2)C4=O)c1

>  <class-assignment>
TRUE

$$$$
>  <compound>
Cn1ccnc1C(=O)/C=C/c1ccc(C(=O)Nc2ccc(F)cc2)cc1

>  <class-assignment>
TRUE

$$$$
>  <compound>
CN1CCN(CCCOc2ccc3ncnc(Nc4ccc(OCc5cccc(F)c5)c(Cl)c4)c3c2)CC1

>  <class-assignment>
TRUE

$$$$
>  <compound>
O=C1/C(=C/c2ccc(Cl)cc2Cl)CN(S(=O)(=O)c2ccccc2)C/C1=C\c1ccc(Cl)cc1Cl

>  <class-assignment>
TRUE

$$$$
>  <compound>
Cc1cc(Cl)ccc1Nc1nc(C(F)(F)F)ccc1C(=O)N/N=C/c1cccc(O)c1

>  <class-assignment>
FALSE

$$$$
>  <compound>
CCn1cc(C2NC(=O)c3ccccc3N2)c2cccc(C)c21 (configuration not stated)

>  <class-assignment>
TRUE

$$$$
>  <compound>
CN1CCN(CCOc2ccc(-c3cnc4c(-c5cccc(F)c5F)cnn4c3)cc2)CC1

>  <class-assignment>
TRUE

$$$$
>  <compound>
CN(C)c1ccc2nc3ccc(=[N+](C)C)c([N+](=O)[O-])c-3sc2c1

>  <class-assignment>
FALSE

$$$$
>  <compound>
CC(=O)Oc1cn(-c2ccc(Cl)cc2)nc1C1=NN(C(C)=O)C(c2ccc(F)cc2F)O1 (configuration not stated)

>  <class-assignment>
FALSE

$$$$
>  <compound>
O=C(O)c1ccc2nc(-c3ccc(OCCCCCOc4ccc(-c5nc6ccc(C(=O)O)cc6[nH]5)cc4)cc3)[nH]c2c1

>  <class-assignment>
FALSE

$$$$
>  <compound>
COc1ccc(OC)c(N(CCN2C(=O)c3ccccc3C2=O)C(=O)CCl)c1

>  <class-assignment>
TRUE

$$$$
